This listing pairs molecules with measured nuclei count.
Run description: inhibitors of E-selectin induction by TNFa, primary screen, imaging, HUVEC, immunofluorescence, MLSMR starter and 10KST1 sets (AID 487);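 note: 100% = median nuclei count of all wells on the same plate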
Experimental setup: HUVEC TNFalpha-induced E-selectin immunofluorescence imaging, at 2 µM; measured here: cell number, toxicity

{"columns": ["Molecule", "nuclei count (%)"],
 "data": [
  ["COC(=O)NCC12CC3CC(C1)CC(CNC(=O)OC)(C3)C2", 122],
  ["COC(=O)c1ccc(CNC(=O)CSc2nc3sc(C)c(C)c3c(=O)n2C)o1", 95.6],
  ["Cc1nc2ccc(NC(=O)NCc3ccco3)cc2s1", 82.3],
  ["CCC1C(=O)N=C(SCC(=O)Nc2cccc3ccccc23)NC1=O (stereo not drawn)", 119],
  ["C#CC1CN(Cc2ccccc2)CC(C#C)N1C (stereo not drawn)", 156],
  ["COc1ccc(-n2ncc3c(NCCCn4ccnc4)ncnc32)cc1", 170],
  ["Clc1ccc(-n2ncc3c(NCc4ccccn4)ncnc32)cc1", 106],
  ["COc1cccc(-n2c(SC3CCOC3=O)nc3ccccc3c2=O)c1 (stereo not drawn)", 108],
  ["CSc1cc(C)nc(N(C)C(C)=O)n1", 145],
  ["CCn1c2ccccc2c2cc(Nc3cc(C)nc4ncnn34)ccc21", 65.1],
  ["COc1cccc(-c2nc3n(n2)C(c2ccccc2Cl)C(C(N)=O)=C(C)N3)c1 (stereo not drawn)", 103],
  ["CCOC(=O)N1CCN(C2OC(=O)c3ccccc32)CC1 (stereo not drawn)", 146],
  ["CC(=O)/C(C#N)=C1\\NC(=O)C(Cc2ccccc2)S1 (stereo not drawn)", 183],
  ["Cn1c(C(=O)Nc2ccc3c(c2)OCO3)cc2c(=O)n(C)c3ccccc3c21", 104],
  ["COc1ccc(C2CC(C(F)(F)F)n3ncc(C(=O)NCc4cccnc4)c3N2)cc1OC (stereo not drawn)", 91.9],
  ["COC(=O)NC(Nc1sc2c(c1C(N)=O)CCCC2)(C(=O)OC)C(F)(F)F (stereo not drawn)", 147],
  ["CCCS(=O)(=O)Nc1c(C(=O)O)[nH]c2ccccc12", 147],
  ["Cc1ccc(S(=O)(=O)c2cc3c(=O)n4cccc(C)c4nc3n(CC3CCCO3)c2=N)cc1 (stereo not drawn)", 107],
  ["Cn1c(=O)c2[nH]c(NCC3CCCO3)nc2n(-c2ccccc2)c1=O (stereo not drawn)", 116],
  ["CCOC(=O)N1CCN(CC(=O)c2c(C)[nH]c3ccccc23)CC1", 143],
  ["CC(C)(C)C1=Nn2c(nnc2C2CCCCC2)SC1", 189],
  ["COc1ccccc1-c1nc2n(n1)C(c1cccs1)C(C(=O)Nc1cccnc1)=C(C)N2 (stereo not drawn)", 98.9],
  ["Cc1c(C#N)c2ncnc(-c3ccccc3)c2n1-c1ccccc1", 108]
]}

* * *

Run description: inhibitors of Chlamydomonas gravitaxis, primary screen, whole organism, Chlamydomonas reinhardtii, WT vs cilia-less mutant, absorbance, 96-well (AID 463189);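 note: 0% = wild type cc124 cells in DMSO and 100% = ciliumless bld1 mutant cells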
Experimental setup: OD600 absorbance, 2 days, at 10 µM, stronger effect = higher value
Calls of active or inactive are those of the source.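 The calls were made as follows: active = inhibition at or above 50% relative to wild type and mutant plate controls; inactive = inhibition below 50%.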

{"columns": ["Compound", "inhibition"],
 "data": [
  ["Cc1cc(=O)oc(C)c1C(=O)NCC1CCCO1 (stereo unspecified)", "5.07% (inactive)"],
  ["O=C1OC(N2CCN(C/C=C/c3ccccc3)CC2)c2ccccc21 (stereo unspecified)", "28.9% (inactive)"],
  ["Cc1cc2c(c(=O)n1Cc1ccccn1)C(c1ccc3c(c1)OCO3)C(C#N)=C(N)O2 (stereo unspecified)", "11.3% (inactive)"],
  ["CCCOc1ccccc1C(=O)NCCCC(=O)O", "23.9% (inactive)"],
  ["CC1(C)Cc2nc(NCCN3CCOCC3)c(C#N)cc2CO1", "-7.98% (inactive)"],
  ["COC(=O)c1ccc(C2/C(=C(/O)c3ccc(OC)cc3)C(=O)C(=O)N2Cc2ccco2)cc1 (stereo unspecified)", "-8.72% (inactive)"],
  ["O=C(c1cc(N2CCCCC2)nc2ccccc12)N1CCOCC1", "1.82% (inactive)"],
  ["COc1ccc2nc(/N=C(\\N)NC(=O)C(C)(C)C)nc(C)c2c1", "2.17% (inactive)"],
  ["C=CCOc1ccc(C2/C(=C(\\O)c3ccc(F)cc3)C(=O)C(=O)N2CCCN(C)C)cc1 (stereo unspecified)", "14.7% (inactive)"],
  ["Cc1cc(=O)oc(C)c1C(=O)NCCc1ccccc1", "-7.3% (inactive)"],
  ["CC(C)Cc1nc(N2CCOCC2)c(C#N)c2c1COC(C)(C)C2", "3.97% (inactive)"]
]}

* * *

Run description: inhibitors of E-selectin induction by TNFa, primary screen, imaging, HUVEC, immunofluorescence, MLSMR starter and 10KST1 sets (AID 487);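 note: 100% = median nuclei count of all wells on the same plate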
Experimental setup: HUVEC TNFalpha-induced E-selectin immunofluorescence imaging, at 2 µM; measured here: cell number, toxicity
This listing pairs compounds with measured nuclei count.
Metric name: nuclei count (%)

{"columns": ["Compound", "Obs value"],
 "data": [
  ["c1ccc(CCn2nnnc2C(c2cccs2)N2CCOCC2)cc1 (stereo not drawn)", 106],
  ["CCCC1CC(=O)OC1(C)C(=O)CSc1n[nH]c(-c2ccccc2)n1 (stereo not drawn)", 142],
  ["COc1ccc(CC(=O)OCN2C(=O)c3ccccc3C2=O)cc1", 138],
  ["COCCN(Cc1cc2cc3c(cc2n2nnnc12)OCO3)C(=O)c1ccccc1F", 105],
  ["CCCSc1nnc(N2C(=O)CC(c3ccsc3)C3=C2CCCC3=O)s1 (stereo not drawn)", 102],
  ["CCOC(=O)C1CCN(C(=O)C2(NC(=O)Nc3ccccc3Cl)CCCCC2)CC1", 105],
  ["COc1cc(OC)c(C2C(C#N)=C(N)OC3=C2C(=O)CC(C)(C)C3)cc1OC (stereo not drawn)", 104],
  ["CCc1c(C(=O)NCCc2ccc(OC)c(OC)c2)[nH]c(C)c1C(C)=O", 93.4],
  ["O=C(CN1C(=O)c2ccccc2S1(=O)=O)NCc1ccccn1", 119],
  ["C=COC(=O)CSc1snc(SCC(=O)OC)c1C#N", 88.9],
  ["NC(=O)C1CCN(C2OC(=O)c3ccccc32)CC1 (stereo not drawn)", 160],
  ["O=c1cc(N2CCCCC2)nc2n1CCCS2", 149],
  ["C/C=C/Cn1c(Br)nc2c1c(=O)[nH]c(=O)n2C", 103],
  ["COC(=O)c1ccccc1NC(=O)C1COc2ccccc2O1 (stereo not drawn)", 169],
  ["CC(=O)OCCNc1cc(N2CCN(C)CC2)c2noc3c2c1C(=O)c1ccccc1-3", 111],
  ["CCc1nc(N2CCN(C(=O)c3ccccc3)CC2)c(C#N)c2c1COC(C)(C)C2", 113],
  ["CCC(C)Nc1nc(OC)nc(N(C)C#N)n1 (stereo not drawn)", 130],
  ["CCCCNc1cc(C)oc(=O)c1C(C)=O", 123],
  ["CCc1nc(N2CCCC2)c(C#N)c2c1CCCC2", 118],
  ["Cc1ccc(-c2noc(CCC(=O)NC3CCCc4ccccc43)n2)cc1 (stereo not drawn)", 85.8],
  ["CCOC(=O)C1=C(C)N=C2SC(C)C(=O)N2C1c1ccc(C(=O)OC)cc1 (stereo not drawn)", 146],
  ["CCN(CC)CCCN1C(=O)C(=O)/C(=C(/O)c2ccccc2)C1c1cc(OC)ccc1OC (stereo not drawn)", 153],
  ["COC(=O)CSc1nnc(C)c(=O)[nH]1", 138]
]}

* * *

Assayed target: Voltage-gated potassium channel subunit beta-2 (Rattus norvegicus) (UniProt P62483)
Sequence (P62483 whole entry, looked up): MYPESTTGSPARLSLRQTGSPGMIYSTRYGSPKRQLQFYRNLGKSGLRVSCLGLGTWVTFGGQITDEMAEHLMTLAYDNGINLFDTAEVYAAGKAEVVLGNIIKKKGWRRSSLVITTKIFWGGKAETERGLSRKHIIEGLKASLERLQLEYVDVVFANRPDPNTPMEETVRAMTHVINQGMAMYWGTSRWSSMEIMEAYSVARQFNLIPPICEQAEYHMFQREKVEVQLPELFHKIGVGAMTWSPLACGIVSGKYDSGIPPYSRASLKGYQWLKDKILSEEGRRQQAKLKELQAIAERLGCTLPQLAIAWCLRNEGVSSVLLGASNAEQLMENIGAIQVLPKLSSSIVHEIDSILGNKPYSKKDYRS
Run description: KvBeta enzyme negative modulators, primary screen, biochemical, NADPH fluorescence (AID 622);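 note: slope of raw intensity against log time taken from 70 to 1610 s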
Experimental setup: recombinant KvBeta, 4-cyanobenzaldehyde reduction, at 10 µM, stronger effect = higher value
This listing pairs compounds with measured fluorescence slope.

{"columns": ["Compound", "Assayed target", "fluorescence slope"],
 "data": [
  ["CCc1nc(NC2CCCCC2)c(C#N)c2c1COC(C)(C)C2", "Voltage-gated potassium channel subunit beta-2 (Rattus norvegicus) (UniProt P62483)", -0.475],
  ["CCn1c(SCC(=O)Nc2ccccc2C(=O)OC)nnc1-c1ccc(N)cc1", "Voltage-gated potassium channel subunit beta-2 (Rattus norvegicus) (UniProt P62483)", -0.46],
  ["CC(C)c1[nH]c(=O)c(C#N)c2c1CSC(C)(C)C2", "Voltage-gated potassium channel subunit beta-2 (Rattus norvegicus) (UniProt P62483)", -0.428],
  ["Cn1c(=O)c2c(nc(N3CCC(C(N)=O)CC3)n2CCSc2nc3ccccc3s2)n(C)c1=O", "Voltage-gated potassium channel subunit beta-2 (Rattus norvegicus) (UniProt P62483)", -0.431],
  ["Cc1ccc(O)c(C(CC(=O)N2CCCC2)c2ccccc2)c1 (stereo not drawn)", "Voltage-gated potassium channel subunit beta-2 (Rattus norvegicus) (UniProt P62483)", -0.35],
  ["CC(C)CN(C(=O)c1ccc(=O)n(C)n1)c1nc2ccccc2s1", "Voltage-gated potassium channel subunit beta-2 (Rattus norvegicus) (UniProt P62483)", -0.332],
  ["CC(C)OC(=O)CSc1nc2cccnc2n1C1CCCCC1", "Voltage-gated potassium channel subunit beta-2 (Rattus norvegicus) (UniProt P62483)", -0.592],
  ["COc1ccc(-c2nc3c(Br)c(N)c(Br)cc3o2)cc1", "Voltage-gated potassium channel subunit beta-2 (Rattus norvegicus) (UniProt P62483)", -0.404],
  ["CCCOc1cccc(C(=O)Nc2cc(NC(=O)c3ccco3)ccc2OC)c1", "Voltage-gated potassium channel subunit beta-2 (Rattus norvegicus) (UniProt P62483)", -0.278],
  ["COC(=O)c1ccccc1NC(=O)CC(NCc1ccccc1)C(=O)O (stereo not drawn)", "Voltage-gated potassium channel subunit beta-2 (Rattus norvegicus) (UniProt P62483)", -0.418],
  ["COCCCN(Cc1ccccn1)S(=O)(=O)Cc1ccccc1", "Voltage-gated potassium channel subunit beta-2 (Rattus norvegicus) (UniProt P62483)", -0.517],
  ["CCCSc1nnc(NC(=O)Nc2ccc(F)cc2)s1", "Voltage-gated potassium channel subunit beta-2 (Rattus norvegicus) (UniProt P62483)", -0.488],
  ["CCC(C)NC(=O)C1c2cc(OC)c(OC)cc2C(=O)N(C)C1c1ccc(OC)cc1 (stereo not drawn)", "Voltage-gated potassium channel subunit beta-2 (Rattus norvegicus) (UniProt P62483)", -0.539],
  ["CCOC(=O)CSc1nc(-c2ccc3c(c2)OCO3)ccc1C#N", "Voltage-gated potassium channel subunit beta-2 (Rattus norvegicus) (UniProt P62483)", -0.199],
  ["O=C(Nc1cccc2ccccc12)c1cnccn1", "Voltage-gated potassium channel subunit beta-2 (Rattus norvegicus) (UniProt P62483)", -0.52],
  ["Fc1ccc2[nH]c3c(N4CCSCC4)ncnc3c2c1", "Voltage-gated potassium channel subunit beta-2 (Rattus norvegicus) (UniProt P62483)", -0.418],
  ["O=C(Nc1ccc2snnc2c1)N1CCN(c2ccccc2)CC1", "Voltage-gated potassium channel subunit beta-2 (Rattus norvegicus) (UniProt P62483)", -0.425],
  ["CCc1nc(N2CCN(C(=O)c3ccccc3)CC2)c(C#N)c2c1COC(C)(C)C2", "Voltage-gated potassium channel subunit beta-2 (Rattus norvegicus) (UniProt P62483)", -0.474],
  ["CC1(C(=O)CSc2n[nH]c(-c3ccccc3Cl)n2)CCC(=O)O1 (stereo not drawn)", "Voltage-gated potassium channel subunit beta-2 (Rattus norvegicus) (UniProt P62483)", -0.482],
  ["COc1ccc(Cn2c(-c3ccco3)nc3oc4ccccc4c(=O)c3c2=O)cc1", "Voltage-gated potassium channel subunit beta-2 (Rattus norvegicus) (UniProt P62483)", -0.491],
  ["CCOC(=O)c1[nH]c2ccc(C)cc2c1N=CN(CC)CC", "Voltage-gated potassium channel subunit beta-2 (Rattus norvegicus) (UniProt P62483)", -0.474],
  ["CCN(CC)C(=O)Cn1c(=O)n(Cc2ccccc2Cl)c2c1c(=O)n(C)c(=O)n2C", "Voltage-gated potassium channel subunit beta-2 (Rattus norvegicus) (UniProt P62483)", -0.45],
  ["CC(=O)C1=C(O)C(=O)N(c2ccc(S(N)(=O)=O)cc2)C1c1ccccc1F (stereo not drawn)", "Voltage-gated potassium channel subunit beta-2 (Rattus norvegicus) (UniProt P62483)", -0.476]
]}
